Assignment: determine reported melting point for the given compounds.
Numeric answer only, unit °C assumed.

Incoming: What melting point value was documented for this compound, `Cn1c(=O)c2c3cc(OCCO)ccc3c3c(oc4cccnc4n3C(=O)Oc3ccccc3)c2c1=O` ?
Outgoing: 250

Incoming: Can you handle `CN(C)CCn1c(=O)c2c3cc(OCCO)ccc3c3[nH]c4ccccc4oc3c2c1=O` next?
Outgoing: 216

Incoming: Can you handle `CN(C)CCn1c(=O)c2c3cc(OCCO)ccc3c3c(oc4ccccc4n3C=O)c2c1=O` next?
Outgoing: 202

Where do the numbers come from? From patent US7312213B2.
